Values from patent EP4682166A1

Target: T1, human NMI (N-myc Interacting protein), recombinant protein (human, UniProt Q13287 1-307, limits assumed)
T1 construct: Gene ID: 9111; also called hNMI; antigen
T1 sequence (looked up): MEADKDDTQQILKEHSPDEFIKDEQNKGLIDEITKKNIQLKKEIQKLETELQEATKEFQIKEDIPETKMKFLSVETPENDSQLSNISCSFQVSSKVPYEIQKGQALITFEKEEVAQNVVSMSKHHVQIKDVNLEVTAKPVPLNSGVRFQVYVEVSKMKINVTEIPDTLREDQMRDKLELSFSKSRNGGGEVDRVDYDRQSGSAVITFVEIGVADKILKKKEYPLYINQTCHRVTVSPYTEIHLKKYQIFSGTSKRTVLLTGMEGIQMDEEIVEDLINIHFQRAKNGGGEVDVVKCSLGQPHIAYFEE
Assay: sandwich ELISA; detection 94C4-1-biotin 0.5µg/mL; hNMI 50,000.000 pg/mL
Each item that follows carries a reported OD450.
State just the number; it will be interpreted in OD450.

These solved cases illustrate the format of a correct answer.
BINDER	UNIT_LABEL	OD450
monoclonal antibody 240B10-1 (antibody, V domains shown, Rabbit monoclonal antibody) VH: QSLEESGGRLVTPGGSLTLTCTVSGIDLSSYTMGWVRQAPGKGLEYIGIISGGGRTYYASWAKGRFTISKTSSTTVDLKVTSLTTEDTATYFCARIYTLWGQGTLVTVSS VL: QVLTQTLASVSAAVGGTVTINCQSSQSVYNNDYLAWFQQKSGQPPKQLIHSASKLASGVPSRFKGSGSGTQFTLTINDVQCDDAATYYCLGGYDCYSADCNVFGGGTEVVVK	OD450	3.33
monoclonal antibody 39B4 (antibody, V domains shown, Rabbit monoclonal antibody; also called 39B4-1) VH: QEQLVESGGGLVQPEGSLTLTCTASGFSFSSSYWICWVRQAPGKGLEWIACIYAGTSGSTYYASWAKGRFTISKTSSTTVDLQMNSLTAADTATYFCARAGYYTYGAGVYIYPSSFKLWGPGTLVTVSS VL: DVVMTQTPASVEAAVGGTVTIKCQASESIGNALAWYQQKPGQPPKLLIYSASNLASGVPSRFSGSGSGTQFTLTISDLECADAATYYCQSYYYSSSSITFGGGTEVVVK	OD450	3.16
monoclonal antibody 98G10 (antibody, V domains shown, Rabbit monoclonal antibody) VH: QEQLEESGGDLVKPEGSLTLTCTASGFSFSASYWICWVRQAPGKGLEWIACIYGGSSGSAYYASWAKGRFTISKTSSTTVTLQMTSLTAADTATYFCARAGYYNYGSAGDIYPSSFKLWGPGTLVTVSS VL: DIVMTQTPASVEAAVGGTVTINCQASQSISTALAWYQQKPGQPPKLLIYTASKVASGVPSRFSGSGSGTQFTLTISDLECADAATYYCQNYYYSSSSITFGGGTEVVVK	OD450	3.25

Proceed to the following item.
# binder monoclonal antibody B-8 (antibody, V domains shown, Rabbit monoclonal antibody; also called B8-1) VH: QSLEESGGDLVKPGASLTLTCTASGFSFSSSYYMCWVRQAPGKGLEWIACIYAGSSGSTYYASWAKGRFTISKTSSTTVTLQMTSLTAADTATYFCAREYSYDDYGDFWGFNLWGPGTLVTVSS VL: ALVMTQTPSSVSAAVGGTVTINCQASQNIYTNLAWYQQKPGQPPKLLIYGASNLESGVPSRFKGSGSGTEYTLTISDLECDDAATYYCQSSLYSRIADRANAFGGGTEVVVK ; its OD450 = 3.17
